Molecular target: UniProt Q9WU86
Sequence (whole entry): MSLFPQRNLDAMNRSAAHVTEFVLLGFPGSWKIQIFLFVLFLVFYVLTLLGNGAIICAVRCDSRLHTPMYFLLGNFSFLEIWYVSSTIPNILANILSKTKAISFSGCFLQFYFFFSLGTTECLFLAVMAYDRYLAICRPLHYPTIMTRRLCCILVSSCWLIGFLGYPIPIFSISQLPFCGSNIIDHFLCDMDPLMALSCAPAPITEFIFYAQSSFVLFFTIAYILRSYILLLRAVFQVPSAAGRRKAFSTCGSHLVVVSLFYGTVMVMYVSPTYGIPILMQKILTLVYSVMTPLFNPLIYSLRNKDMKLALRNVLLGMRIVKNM
Conditions: stereoisomer not certain
Reply using exactly one outcome from t = active, f = inactive

Observe how each entry below is paired with its result.
[
  {
    "Molecule": "CCC(=O)C(=O)CC",
    "Label class": "f"
  },
  {
    "Molecule": "CCCC(C)=O",
    "Label class": "f"
  },
  {
    "Molecule": "CCC(C(=O)O)c1ccccc1 (configuration not stated)",
    "Label class": "f"
  },
  {
    "Molecule": "CCCCC(C)=O",
    "Label class": "f"
  },
  {
    "Molecule": "CCCCCCC(=O)[O-].[H+]",
    "Label class": "f"
  },
  {
    "Molecule": "CCCCCC=O",
    "Label class": "f"
  },
  {
    "Molecule": "CCCCCCOC(C)=O",
    "Label class": "f"
  },
  {
    "Molecule": "CC(C)=CCCC(C)CCO (configuration not stated)",
    "Label class": "f"
  },
  {
    "Molecule": "COc1cc(C(=O)O)ccc1O",
    "Label class": "f"
  },
  {
    "Molecule": "CCCCCCCCCO",
    "Label class": "f"
  }
]

# input Per the assay record, what outcome was assigned to CCCCC(=O)O ?
# output f

# input Per the assay record, what outcome was assigned to CC12CCC(CC1=O)C2(C)C (configuration not stated) ?
# output f

# input Per the assay record, what outcome was assigned to C=C(C)C1CCC(C)C(=O)C1 (configuration not stated) ?
# output f

# input Per the assay record, what outcome was assigned to CCCCCCCCC(=O)O ?
# output f

# input Per the assay record, what outcome was assigned to CC(=O)OCC=C(C)C ?
# output f

# input Per the assay record, what outcome was assigned to CCCC(=O)C(C)=O ?
# output f

# input Per the assay record, what outcome was assigned to CCCCCC(=O)CC ?
# output f

====

Test system: O52W1 H239R L254Q
Conditions: stereoisomer not certain
Measurement label: odorant receptor agonist call

// solved cases for odorant receptor agonist call follow
[
  {
    "Compound": "CCC1OC(C)=C(O)C1=O (stereo not given)",
    "Tested on": "O52W1 H239R L254Q",
    "odorant receptor agonist call": "inactive"
  },
  {
    "Compound": "CCCC(S)CCOC(C)=O (stereo not given)",
    "Tested on": "O52W1 H239R L254Q",
    "odorant receptor agonist call": "inactive"
  },
  {
    "Compound": "CC1=NC(C)C(C)S1 (stereo not given)",
    "Tested on": "O52W1 H239R L254Q",
    "odorant receptor agonist call": "inactive"
  },
  {
    "Compound": "CCC1OC(=O)C(O)=C1C (stereo not given)",
    "Tested on": "O52W1 H239R L254Q",
    "odorant receptor agonist call": "inactive"
  }
]

Please examine the following record next.
# input Item under review: CC1=C(O)C(=O)OC1C (stereo not given) . Reported odorant receptor agonist call?
# output inactive

====

Biological target: OR2H1 (Homo sapiens) (UniProt Q9GZK4)
Sequence (Q9GZK4 whole entry): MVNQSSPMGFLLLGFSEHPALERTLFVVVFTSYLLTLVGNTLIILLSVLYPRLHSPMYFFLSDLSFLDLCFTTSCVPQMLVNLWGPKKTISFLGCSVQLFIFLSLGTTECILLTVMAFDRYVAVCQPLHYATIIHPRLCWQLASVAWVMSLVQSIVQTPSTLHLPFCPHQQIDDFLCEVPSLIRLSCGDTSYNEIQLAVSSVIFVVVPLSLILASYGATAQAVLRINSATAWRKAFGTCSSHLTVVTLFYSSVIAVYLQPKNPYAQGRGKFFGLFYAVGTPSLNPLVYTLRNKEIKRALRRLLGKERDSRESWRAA
Details: stereoisomer not certain
Measurement label: odorant receptor agonist call

// solved cases for odorant receptor agonist call follow
[
  {
    "Compound": "CCCCC(S)C(C)CO (stereo not given)",
    "Tested on": "OR2H1 (Homo sapiens) (UniProt Q9GZK4)",
    "odorant receptor agonist call": "inactive"
  },
  {
    "Compound": "Cc1cnc(C)c(C)n1",
    "Tested on": "OR2H1 (Homo sapiens) (UniProt Q9GZK4)",
    "odorant receptor agonist call": "inactive"
  },
  {
    "Compound": "CC1=NC(C)C(C)S1 (stereo not given)",
    "Tested on": "OR2H1 (Homo sapiens) (UniProt Q9GZK4)",
    "odorant receptor agonist call": "inactive"
  },
  {
    "Compound": "CCC1OC(=O)C(O)=C1C (stereo not given)",
    "Tested on": "OR2H1 (Homo sapiens) (UniProt Q9GZK4)",
    "odorant receptor agonist call": "inactive"
  }
]

Please examine the following record next.
# input Item under review: CCCCCCC=CCCC=O . Reported odorant receptor agonist call?
# output inactive

====

Target: OR2C1 (Homo sapiens) (UniProt O95371)
Sequence (O95371 whole entry): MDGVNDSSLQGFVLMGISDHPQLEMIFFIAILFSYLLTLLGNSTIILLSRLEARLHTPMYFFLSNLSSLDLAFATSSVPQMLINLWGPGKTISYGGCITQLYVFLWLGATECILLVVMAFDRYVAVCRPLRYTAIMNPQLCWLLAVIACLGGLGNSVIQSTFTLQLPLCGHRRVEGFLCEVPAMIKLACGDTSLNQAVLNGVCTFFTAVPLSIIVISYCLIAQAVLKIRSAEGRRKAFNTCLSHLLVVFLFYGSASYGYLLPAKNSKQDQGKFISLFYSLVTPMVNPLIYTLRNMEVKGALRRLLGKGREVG
Details: stereoisomer not certain
Reply using exactly one outcome from active, inactive

Observe how each entry below is paired with its result.
[
  {
    "Compound": "CCCCCO",
    "Label class": "inactive"
  },
  {
    "Compound": "O=c1ccc2ccccc2o1",
    "Label class": "inactive"
  },
  {
    "Compound": "CC(CO)CS (stereo not drawn)",
    "Label class": "inactive"
  },
  {
    "Compound": "CCCCCCOC(C)=O",
    "Label class": "inactive"
  },
  {
    "Compound": "CCCCCCCCC(=O)O",
    "Label class": "inactive"
  }
]

# input Per the assay record, what outcome was assigned to CCCCCC=O ?
# output inactive

# input Per the assay record, what outcome was assigned to CCCCCCCC(=O)[O-].[H+] ?
# output inactive

# input Per the assay record, what outcome was assigned to CCCCOC=O ?
# output inactive

# input Per the assay record, what outcome was assigned to CCCCC(=O)CC ?
# output inactive

# input Per the assay record, what outcome was assigned to CCCCCCCCS ?
# output active

# input Per the assay record, what outcome was assigned to CCCCCCC=CCCC=O ?
# output inactive

# input Per the assay record, what outcome was assigned to CCCC(C)=O ?
# output inactive

====

Target: OR2J2 (Homo sapiens) (UniProt O76002)
Sequence (O76002 whole entry): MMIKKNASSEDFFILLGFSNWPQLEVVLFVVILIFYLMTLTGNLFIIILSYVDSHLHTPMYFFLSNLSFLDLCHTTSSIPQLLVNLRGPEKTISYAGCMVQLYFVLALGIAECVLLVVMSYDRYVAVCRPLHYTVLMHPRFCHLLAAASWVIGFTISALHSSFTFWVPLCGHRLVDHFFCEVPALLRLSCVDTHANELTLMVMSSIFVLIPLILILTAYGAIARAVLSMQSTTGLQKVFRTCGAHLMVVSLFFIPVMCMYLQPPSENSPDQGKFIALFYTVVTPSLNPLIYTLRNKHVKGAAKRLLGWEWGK
Settings: stereoisomer not certain
Reply using exactly one outcome from active, inactive

Observe how each entry below is paired with its result.
[
  {
    "Compound": "CCCCCC1=C(C)CCC1=O",
    "Label class": "inactive"
  },
  {
    "Compound": "CCCCCCC(=O)[O-].[H+]",
    "Label class": "inactive"
  },
  {
    "Compound": "CCCCOC=O",
    "Label class": "inactive"
  },
  {
    "Compound": "CCCCCO",
    "Label class": "inactive"
  },
  {
    "Compound": "CCCCCCC(C)=O",
    "Label class": "inactive"
  }
]

# input Per the assay record, what outcome was assigned to CC(=O)Oc1ccccc1 ?
# output inactive

# input Per the assay record, what outcome was assigned to CCCCC(C)=O ?
# output inactive

# input Per the assay record, what outcome was assigned to CC(CO)CS (stereo not drawn) ?
# output inactive

# input Per the assay record, what outcome was assigned to CC(C)=CCCC(C)CCO (stereo not drawn) ?
# output inactive

# input Per the assay record, what outcome was assigned to O=c1ccc2ccccc2o1 ?
# output active

====

Molecular target: UniProt E9PZ66
Sequence (E9PZ66 as listed by the source): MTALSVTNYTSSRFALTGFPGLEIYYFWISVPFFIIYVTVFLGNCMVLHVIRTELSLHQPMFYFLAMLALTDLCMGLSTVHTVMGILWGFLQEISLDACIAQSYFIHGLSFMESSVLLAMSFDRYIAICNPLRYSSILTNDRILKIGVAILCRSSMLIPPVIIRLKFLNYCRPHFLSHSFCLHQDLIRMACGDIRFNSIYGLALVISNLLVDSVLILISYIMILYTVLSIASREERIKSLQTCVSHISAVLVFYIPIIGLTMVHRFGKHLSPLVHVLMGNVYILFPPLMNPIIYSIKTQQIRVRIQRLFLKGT
Conditions: stereoisomer not certain
Measurement label: odorant receptor agonist call

[
  {
    "Compound": "Cc1c(C)c(C)c(C=O)c(C)c1C",
    "Tested on": "UniProt E9PZ66",
    "Measurement label": "odorant receptor agonist call",
    "Val": "inactive"
  },
  {
    "Compound": "OCC=Cc1ccccc1",
    "Tested on": "UniProt E9PZ66",
    "Measurement label": "odorant receptor agonist call",
    "Val": "inactive"
  },
  {
    "Compound": "C1CCOC1",
    "Tested on": "UniProt E9PZ66",
    "Measurement label": "odorant receptor agonist call",
    "Val": "inactive"
  },
  {
    "Compound": "C=C(C)C1CCC(C)C(=O)C1 (stereo not drawn)",
    "Tested on": "UniProt E9PZ66",
    "Measurement label": "odorant receptor agonist call",
    "Val": "inactive"
  },
  {
    "Compound": "COc1ccccc1",
    "Tested on": "UniProt E9PZ66",
    "Measurement label": "odorant receptor agonist call",
    "Val": "inactive"
  },
  {
    "Compound": "CCSSCC",
    "Tested on": "UniProt E9PZ66",
    "Measurement label": "odorant receptor agonist call",
    "Val": "inactive"
  },
  {
    "Compound": "CCCO",
    "Tested on": "UniProt E9PZ66",
    "Measurement label": "odorant receptor agonist call",
    "Val": "inactive"
  },
  {
    "Compound": "c1ccccc1",
    "Tested on": "UniProt E9PZ66",
    "Measurement label": "odorant receptor agonist call",
    "Val": "inactive"
  }
]

# input Item under review: CCCCCCCCCS . Reported odorant receptor agonist call?
# output inactive

# input Item under review: CC12CCC(CC1=O)C2(C)C (stereo not drawn) . Reported odorant receptor agonist call?
# output inactive

# input Item under review: c1ccc2ncccc2c1 . Reported odorant receptor agonist call?
# output inactive

# input Item under review: CCc1occc(=O)c1O . Reported odorant receptor agonist call?
# output inactive

# input Item under review: CCCCCCCCCC(=O)[O-].[H+] . Reported odorant receptor agonist call?
# output inactive

# input Item under review: CC(=O)OCC=C(C)C . Reported odorant receptor agonist call?
# output inactive

# input Item under review: C=CCOC(=O)CCCCCC . Reported odorant receptor agonist call?
# output inactive

# input Item under review: CCc1nccnc1CC . Reported odorant receptor agonist call?
# output inactive

# input Item under review: CCCCCCCCS . Reported odorant receptor agonist call?
# output inactive

# input Item under review: CC=C(C)C=O . Reported odorant receptor agonist call?
# output inactive
